Target: UniProt:Q92793
Experiment: Isothermal titration calorimetry (ITC)
Define the label as 1.0 when ITC N (molar binding ratio of the ligand-protein interaction), CBP is strictly less than 1 and as 0.0 in all remaining cases.

Consider the following illustrative entries.
- givenSmiles: "COc1ccc(CCc2nc3cc(-c4c(C)noc4C)ccc3n2CCN2CCOCC2)cc1Cl"
  testSystem: "UniProt:Q92793"
  categoryLabel: 0.0
- givenSmiles: "Cc1noc(C)c1-c1ccc2c(c1)nc(CCc1ccc(F)cc1)n2CCN1CCOCC1"
  testSystem: "UniProt:Q92793"
  categoryLabel: 1.0
- givenSmiles: "Cc1noc(C)c1-c1ccc2c(c1)nc(CCn1ccc3ccccc31)n2C[C@@H](C)N1CCOCC1"
  testSystem: "UniProt:Q92793"
  categoryLabel: 1.0
- givenSmiles: "Cc1noc(C)c1-c1ccc2c(c1)nc(CCc1nc3ccccc3s1)n2CCN1CCOCC1"
  testSystem: "UniProt:Q92793"
  categoryLabel: 1.0

Then there is this compound:
Req: Hello, I'm reviewing records and need to know if ITC N (molar binding ratio of the ligand-protein interaction), CBP of COc1ccc(CCc2nc3cc(-c4c(C)noc4C)ccc3n2C[C@@H](C)N2CCOCC2)cc1F is below 1. Could you check?
Resp: 0.0

* * *

Molecular target: BRD4(1) (Homo sapiens)
Test: Isothermal titration calorimetry (ITC)
observable: ITC N (molar binding ratio of the ligand-protein interaction), BRD4(1)
// no unit string in output, number only

Worked examples follow.
- givenSmiles: "COc1ccc(CCc2nc3cc(-c4c(C)noc4C)ccc3n2C[C@@H](C)N2CCOCC2)cc1F"
  quantitativeResult: 0.859
- givenSmiles: "Cc1noc(C)c1-c1ccc(NC[C@H](C)N2CCOCC2)c([N+](=O)[O-])c1"
  quantitativeResult: 1.04

Req: Reported ITC N (molar binding ratio of the ligand-protein interaction), BRD4(1) for Cc1noc(C)c1-c1ccc2c(c1)nc(CCc1ccccc1)n2CCN1CCCCC1 : what is it?
Resp: 1.10

Req: Reported ITC N (molar binding ratio of the ligand-protein interaction), BRD4(1) for Cc1noc(C)c1-c1ccc2c(c1)nc(CCn1ccc3ccccc31)n2C[C@@H](C)N1CCOCC1 : what is it?
Resp: 0.84

Req: Reported ITC N (molar binding ratio of the ligand-protein interaction), BRD4(1) for Cc1noc(C)c1-c1ccc2c(c1)nc(CCc1nc3ccccc3s1)n2CCN1CCOCC1 : what is it?
Resp: 0.645

Req: Reported ITC N (molar binding ratio of the ligand-protein interaction), BRD4(1) for Cc1ccc(CCc2nc3cc(-c4c(C)noc4C)ccc3n2CCN2CCOCC2)cc1 : what is it?
Resp: 0.987

Req: Reported ITC N (molar binding ratio of the ligand-protein interaction), BRD4(1) for COc1ccc(CCc2nc3cc(-c4c(C)noc4C)ccc3n2CCN2CCOCC2)cc1Cl : what is it?
Resp: 0.604

Req: Reported ITC N (molar binding ratio of the ligand-protein interaction), BRD4(1) for Cc1noc(C)c1-c1ccc2c(c1)nc(CCc1ccc(F)cc1)n2CCN1CCOCC1 : what is it?
Resp: 0.674

Req: Reported ITC N (molar binding ratio of the ligand-protein interaction), BRD4(1) for Cc1noc(C)c1-c1ccc2c(c1)nc(CCn1ccc3ccccc31)n2C[C@H](C)N1CCOCC1 : what is it?
Resp: 0.862

* * *

Biological target: BRD4(1) (Homo sapiens, UniProt O60885)
Assay: DSF (ΔTm) thermal stability assay
Format: binding
Settings: compound concentration 10 μM; mean ± SEM (number of measurements)
Overview of recorded ΔTm at 10 µM for various compounds
Give the value, in units of °C, as a plain number.

Worked examples follow.
- compound: "Cc1noc(C)c1-c1ccc2c(c1)nc(CCc1ccccc1)n2CCN(C)C [Compound 12]"
  scaleUnit: "°C"
  ΔTm at 10 µM: 2.9
- compound: "Cc1noc(C)c1-c1ccc2c(c1)nc(CCc1ccccc1)n2CCN1CCSCC1 [Compound 20]"
  scaleUnit: "°C"
  ΔTm at 10 µM: 3.9
- compound: "Cc1noc(C)c1-c1ccc2c(c1)nc(CCc1ccccc1)n2CCN1CCCC1 [Compound 15]"
  scaleUnit: "°C"
  ΔTm at 10 µM: 2.7
- compound: "Cc1noc(C)c1-c1ccc2c(c1)nc(CCc1ccccc1)n2CCN1CCCCC1 [Compound 16]"
  scaleUnit: "°C"
  ΔTm at 10 µM: 2.7
- compound: "Cc1noc(C)c1-c1ccc2c(c1)nc(CCc1ccccc1)n2CCN1CCOCC1 [Compound 17]"
  scaleUnit: "°C"
  ΔTm at 10 µM: 2.1
- compound: "Cc1noc(C)c1-c1ccc2c(c1)nc(CC(C)(C)C)n2CCN(C)C [Compound 8]"
  scaleUnit: "°C"
  ΔTm at 10 µM: 3.2
- compound: "Cc1noc(C)c1-c1ccc2c(c1)nc(CCc1ccccc1)n2CCN1CCC1 [Compound 14]"
  scaleUnit: "°C"
  ΔTm at 10 µM: 2.6
- compound: "Cc1noc(C)c1-c1ccc2c(c1)nc(CCc1ccccc1)n2CCN1CCN(C)CC1 [Compound 18]"
  scaleUnit: "°C"
  ΔTm at 10 µM: 1.2

Could you now consider this next compound?
Req: Reported ΔTm at 10 µM for Cc1noc(C)c1-c1ccc2c(c1)nc(CCc1ccccc1)n2CCN1CCNCC1 [Compound 19] : what is it?
Resp: 4

* * *

Biological target: CBP (Homo sapiens)
Sequence (Q92793 1085-1192 limits assumed): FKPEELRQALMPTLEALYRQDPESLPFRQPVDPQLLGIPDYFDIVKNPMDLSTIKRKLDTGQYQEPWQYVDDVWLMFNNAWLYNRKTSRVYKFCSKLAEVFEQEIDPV
Experiment: Isothermal titration calorimetry (ITC)
Conditions: ITC Ka, CBP
observable: pKd
pKd is defined as minus the log10 of a concentration measured in mol/L.

Worked examples follow.
- givenSmiles: "Cc1noc(C)c1-c1ccc2c(c1)nc(CCc1ccccc1)n2CCN1CCCCC1"
  testSystem: "CBP (Homo sapiens)"
  pKd: 6.49
- givenSmiles: "Cc1noc(C)c1-c1ccc2c(c1)nc(CCn1ccc3ccccc31)n2C[C@H](C)N1CCOCC1"
  testSystem: "CBP (Homo sapiens)"
  pKd: 6.62
- givenSmiles: "COc1ccc(CCc2nc3cc(-c4c(C)noc4C)ccc3n2C[C@@H](C)N2CCOCC2)cc1F"
  testSystem: "CBP (Homo sapiens)"
  pKd: 7.40

Could you now consider this next compound?
Req: Reported pKd for Cc1noc(C)c1-c1ccc2c(c1)nc(CCc1ccc(F)cc1)n2CCN1CCOCC1 : what is it?
Resp: 7.56

* * *

Molecular target: BRD4(1) (Homo sapiens, UniProt O60885)
Assay: Isothermal titration calorimetry (ITC)
Overview of recorded ITC ∆G, BRD4(1) for various molecules
Give the value, in units of kcal/mol, as a plain number.

Worked examples follow.
- molecule: "Cc1ccc(CCc2nc3cc(-c4c(C)noc4C)ccc3n2CCN2CCOCC2)cc1 [Compound 25]"
  scaleUnit: "kcal/mol"
  ITC ∆G, BRD4(1): -8.24
- molecule: "Cc1noc(C)c1-c1ccc2c(c1)nc(CCn1ccc3ccccc31)n2C[C@@H](C)N1CCOCC1 [Compound 60]"
  scaleUnit: "kcal/mol"
  ITC ∆G, BRD4(1): -8.30
- molecule: "COc1ccc(CCc2nc3cc(-c4c(C)noc4C)ccc3n2C[C@@H](C)N2CCOCC2)cc1F [Compound 62]"
  scaleUnit: "kcal/mol"
  ITC ∆G, BRD4(1): -8.17
- molecule: "Cc1noc(C)c1-c1ccc2c(c1)nc(CCc1ccccc1)n2CCN1CCCCC1 [Compound 16]"
  scaleUnit: "kcal/mol"
  ITC ∆G, BRD4(1): -8.01
- molecule: "Cc1noc(C)c1-c1ccc2c(c1)nc(CCn1ccc3ccccc31)n2C[C@H](C)N1CCOCC1 [Compound 61]"
  scaleUnit: "kcal/mol"
  ITC ∆G, BRD4(1): -8.09

Req: Reported ITC ∆G, BRD4(1) for Cc1noc(C)c1-c1ccc2c(c1)nc(CCc1ccc(F)cc1)n2CCN1CCOCC1 [Compound 31] : what is it?
Resp: -8.35

Req: Reported ITC ∆G, BRD4(1) for Cc1noc(C)c1-c1ccc2c(c1)nc(CCc1nc3ccccc3s1)n2CCN1CCOCC1 [Compound 35] : what is it?
Resp: -8.10

Req: Reported ITC ∆G, BRD4(1) for Cc1noc(C)c1-c1ccc(NC[C@H](C)N2CCOCC2)c([N+](=O)[O-])c1 [Compound 57] : what is it?
Resp: -7.78

Req: Reported ITC ∆G, BRD4(1) for COc1ccc(CCc2nc3cc(-c4c(C)noc4C)ccc3n2CCN2CCOCC2)cc1Cl [Compound 32] : what is it?
Resp: -8.32

* * *

Target: UniProtKB Q92793
Assay: DSF (ΔTm) thermal stability assay
Type: binding
Conditions: compound concentration 10 μM; mean ± SEM (number of measurements)
Define the label as True when ΔTm at 10 µM is strictly less than 6 °C and as False in all remaining cases.

Consider the following illustrative entries.
- givenSmiles: "Cc1noc(C)c1-c1ccc2c(c1)nc(CCc1ccccc1)n2CCN1CCOCC1"
  categoryLabel: "True"
- givenSmiles: "Cc1noc(C)c1-c1ccc2c(c1)nc(CCc1ccccc1)n2CCN1CCN(C)CC1"
  categoryLabel: "True"
- givenSmiles: "COc1ccc(CCc2cc3cc(-c4c(C)noc4C)ccc3n2CCN2CCOCC2)cc1Cl"
  categoryLabel: "True"

Req: Hello, I'm reviewing records and need to know if ΔTm at 10 µM of Cc1noc(C)c1-c1ccc2c(c1)nc(CCc1cccc(F)c1)n2CCN1CCOCC1 is below 6 °C. Could you check?
Resp: False

Req: Hello, I'm reviewing records and need to know if ΔTm at 10 µM of Cc1noc(C)c1-c1ccc2c(c1)nc(CCc1ccccc1)n2CCN1CCC1 is below 6 °C. Could you check?
Resp: True

Req: Hello, I'm reviewing records and need to know if ΔTm at 10 µM of Cc1noc(C)c1-c1ccc2c(c1)nc(CCc1ccccc1)n2CCN(C)C is below 6 °C. Could you check?
Resp: False

Req: Hello, I'm reviewing records and need to know if ΔTm at 10 µM of Cc1noc(C)c1-c1ccc2c(c1)nc(CCc1ccccc1)n2CCN1CCNCC1 is below 6 °C. Could you check?
Resp: False

Req: Hello, I'm reviewing records and need to know if ΔTm at 10 µM of Cc1noc(C)c1-c1ccc2c(c1)nc(CCn1ccc3ccccc31)n2CCN1CCOCC1 is below 6 °C. Could you check?
Resp: False

Req: Hello, I'm reviewing records and need to know if ΔTm at 10 µM of Cc1ccc(CCc2nc3cc(-c4c(C)noc4C)ccc3n2CCN2CCOCC2)cc1 is below 6 °C. Could you check?
Resp: False

Req: Hello, I'm reviewing records and need to know if ΔTm at 10 µM of COC(Cn1c(CCc2ccccc2)nc2cc(-c3c(C)noc3C)ccc21)OC is below 6 °C. Could you check?
Resp: True

Req: Hello, I'm reviewing records and need to know if ΔTm at 10 µM of COc1ccc(CCc2nc3cc(-c4c(C)noc4C)ccc3n2CCN2CCOCC2)cc1 is below 6 °C. Could you check?
Resp: False
